Provide the reported IC50 of each item.
molecular target: Mushroom tyrosinase; test: Mushroom tyrosinase assay; details: L-DOPA 0.5 mM, tyrosinase 0.1 mg/ml, phosphate pH 7.0, room temperature
The reply should contain only the number, in µM.

May I ask what IC50 has been recorded for CCc1ccc(O)cc1O [4-ethyl resorcinol (ER), 4-ethyl resorcinol, reference compound] ? 1.1

Tell me the measured IC50 of Oc1ccc(CC2CCCCC2)c(O)c1 , please. 0.95
